Assignment: determine reported TGI for the given molecules.
test system: K-562 leukemia; assay: NCI tumour cell line growth inhibition, 48 h

Recorded TGI (molecule "Cc1ccc(S(=O)(=O)NC(=O)Nc2nc(Cl)cc(Cl)n2)cc1" ): > 100 µM

Recorded TGI (molecule Cc1nn(C(=O)c2ccncc2)c2c1C(c1ccccc1O)SC(N)=N2 (stereo unspecified) ): > 10 µM

Recorded TGI (molecule "Clc1ccc(CSCc2ccc(Cl)cc2Cl)c(Cl)c1" ): > 100 µM

Recorded TGI (molecule "O=C1/C(=C/c2cccc3ccccc23)Cc2ccccc21" ): > 100 µM

Recorded TGI (molecule "CC(C)(C)C1CCN(C(=O)c2ccccc2)CC1" ): > 100 µM

Recorded TGI (molecule "Cc1c(C)c2ccc(O)cc2[nH]c1=O" ): > 100 µM

Recorded TGI (molecule "N#C/C(N)=C(\C#N)N=CNc1ccccc1N" ): > 100 µM

Recorded TGI (molecule O=C(CN1C(=O)c2ccccc2C1=O)OCC1CCCN2CCCCC12 (stereo unspecified) ): > 100 µM

Recorded TGI (molecule COc1ccc(C2Oc3c(cccc3OC)C=C2[N+](=O)[O-])cc1 (stereo unspecified) ): 16.3 µM

Recorded TGI (molecule "O=C1NCN(c2ccccc2)C12CCN(CCCSc1ccc(F)cc1)CC2" ): > 79.2 µM

Recorded TGI (molecule CC1(c2nc3cc(Cl)c(Cl)cc3[nH]2)CCC(C(=O)O)C(C)(C)O1 (stereo unspecified) ): > 100 µM

Recorded TGI (molecule COc1cc([C@@H]2c3cc4c(cc3[C@@H](NC(=O)c3ccc([N+](=O)[O-])cc3)C3COC(=O)[C@@H]32)OCO4)cc(OC)c1O (stereo partly specified) ): > 100 µM

Recorded TGI (molecule CCN(CC)CCCC(C)Nc1ccnc2cc(Cl)c(SCc3ccccc3)cc12 (stereo unspecified) ): 0.702 µM

Recorded TGI (molecule "Clc1ccc(CCn2cncn2)c(Cl)c1" ): > 100 µM

Recorded TGI (molecule Cn1c(C2CC(C)(C)c3c2c2ccccc2n3C)cc2ccccc21 (stereo unspecified) ): > 304 µM

Recorded TGI (molecule CC(=O)OCC1OC(OC2CC3C(C)(C)C(=O)CC[C@]3(C)C3CC[C@]45C[C@]4(CCC5[C@@H](C)CC(O)C(O)C(C)(C)O)[C@]23C)C(O)C(O)C1O (stereo partly specified) ): 21.7 µM

Recorded TGI (molecule Cc1ccccc1C(C#N)/C(=N/NC(=O)C(=O)NN)C(=O)Nc1cccc(C(F)(F)F)c1 (stereo unspecified) ): > 100 µM

Recorded TGI (molecule "O=C(O)C#Cc1ccc([N+](=O)[O-])cc1" ): > 100 µM

Recorded TGI (molecule "[O-][N+]1=C(c2ccccc2)COc2ccccc21" ): > 100 µM

Recorded TGI (molecule "C/C(CC(=O)Nc1ccc([N+](=O)[O-])cc1)=N/N=C(N)N" ): > 100 µM

Recorded TGI (molecule "CN(C)CCOc1cccc(NC2=C(Cl)C(=O)C(Nc3cccc(OCCN(C)C)c3)=C(Cl)C2=O)c1" ): 0.608 µM

Recorded TGI (molecule "Clc1ccc(-c2cc(-c3nc4ccccc4[nH]3)no2)cc1" ): 50.2 µM

Recorded TGI (molecule "CCN1CCN(Cc2ccc3cc(C(=O)Nc4cc(NC(=O)c5ccc6c(c5)OCCO6)ccc4F)ccc3n2)CC1" ): 14.5 µM

Recorded TGI (molecule "C[C@]12CCC(=O)C=C1CC[C@@H]1[C@@H]2CC[C@]2(C)C(=O)/C(=C\c3ccccc3)C[C@@H]12" ): > 100 µM

Recorded TGI (molecule "CO/N=C/c1c(-c2ccc(Cl)cc2)c(/C=N/OC)n2c1sc1ccccc12" ): > 100 µM

Recorded TGI (molecule "C(=N/Nc1ccccn1)/c1cccnc1" ): > 100 µM

Recorded TGI (molecule "CN(C)N1C(=O)CC2(CCN(CCCC(=O)c3ccc(F)cc3)CC2)C1=O" ): > 100 µM

Recorded TGI (molecule COc1ccc(/C=C2\CCCC3=C2N=C2SC=NN2C3c2ccc(OC)c(OC)c2)cc1OC (stereo unspecified) ): > 100 µM

Recorded TGI (molecule "O=C(CCc1cc(-c2ccco2)n(-c2ccc([N+](=O)[O-])cc2[N+](=O)[O-])n1)Nc1ccccc1" ): > 100 µM

Recorded TGI (molecule O=C1[C@H](c2ccccc2)C2c3ccccc3CCN12 (stereo partly specified) ): > 100 µM

Recorded TGI (molecule "CCNCCNc1cc(C2CCCC2)c(C#N)c2nc3ccccc3n12" ): 5.81 µM

Recorded TGI (molecule "N=C(N)c1ccc(-c2ccc(-c3ccco3)o2)cc1F" ): 3.82 µM

Recorded TGI (molecule CCCN1CN(C(C(=O)N[C@@H]2C(=O)N3C(C(=O)O)=C(C)CSC23)c2ccccc2)CSC1=S (stereo partly specified) ): > 100 µM

Recorded TGI (molecule COC1=CC(=O)C2[C@H]3Cc4ccccc4[C@H]3C2(C)C1=O (stereo partly specified) ): > 100 µM

Recorded TGI (molecule "CO[C@H]1C[C@H](O[C@H]2CC[C@]3(C=O)[C@H]4CC[C@]5(C)[C@@H](C6=CC(=O)OC6)CC[C@]5(O)[C@@H]4CC[C@]3(O)C2)O[C@H](C)[C@H]1O[C@@H]1O[C@H](CO[C@@H]2O[C@H](CO)[C@@H](O)[C@H](O)[C@H]2O)[C@@H](O)[C@H](O)[C@H]1O" ): > 100 µM

Recorded TGI (molecule "O=C(Nc1ncc(Cc2ccc(Cl)cc2)s1)c1ccc2c(c1)OCCO2" ): > 100 µM

Recorded TGI (molecule "CCOC(=O)c1cc(Cl)ccc1OC(N)=O" ): > 100 µM

Recorded TGI (molecule "O=C1C=CC(=O)N1CCCCCCCCCCN1C(=O)C=CC1=O" ): 67.9 µM

Recorded TGI (molecule "N#CC(C#N)=Cc1ccc(-c2ccc(-c3nc4ccccc4s3)cc2)s1" ): 57.4 µM

Recorded TGI (molecule NC(CCCNCc1ccccc1O)C(=O)O (stereo unspecified) ): > 100 µM

Recorded TGI (molecule "NS(=O)(=O)c1ccc(NCc2cnc3ccccc3c2)cc1" ): > 100 µM

---

tested on: NCI-H23 lung; test: NCI tumour cell line growth inhibition, 48 h
measured_parameter: TGI

Recorded TGI (molecule "O=S(=O)(c1ccccc1)C1CN(Cc2ccccc2)CCN(Cc2ccccc2)C1" ): > 100 µM

Recorded TGI (molecule "Clc1ccc(CSCc2ccc(Cl)cc2Cl)c(Cl)c1" ): > 100 µM

Recorded TGI (molecule "C#Cc1ccc(-n2c(/C=C/c3ccc4ccccc4n3)nc3ncccc3c2=O)cc1" ): 2.32 µM

Recorded TGI (molecule "O=C(Nc1ncc(Cc2ccc(Cl)cc2)s1)c1ccc2c(c1)OCCO2" ): > 100 µM

Recorded TGI (molecule "CC(C)[C@H](NC(=O)[C@@H](O)[C@H](N)Cc1ccccc1)C(=O)N[C@@H](Cc1ccccc1)C(=O)O" ): > 100 µM

Recorded TGI (molecule CC1CC(=O)NC2CC1C2(C)C (configuration not stated) ): > 100 µM

Recorded TGI (molecule "Cc1cc2c(=O)cc(-c3ccc(C(=O)O)cc3)oc2c(C(=O)O)c1C" ): > 100 µM

Recorded TGI (molecule "Cn1c(-c2ccccc2)c/c(=N\NS(C)(=O)=O)c2cc(S(=O)(=O)O)ccc21" ): > 100 µM

Recorded TGI (molecule "COc1ccc2oc(-c3ccc(Cl)cc3)c(N3CCN(C)CC3)c2c1" ): 8.99 µM

Recorded TGI (molecule "C/C(=C\c1ccc2c(c1)OCO2)[N+](=O)[O-]" ): 7.54 µM

Recorded TGI (molecule "CCNCCNc1cc(C2CCCC2)c(C#N)c2nc3ccccc3n12" ): 24.3 µM

Recorded TGI (molecule "COc1cc2c(/C=C3/C(=O)Nc4c3ccc3ccccc43)c(Cl)[nH]c2cc1C" ): 4.59 µM

Recorded TGI (molecule COc1ccc(/C=C2\CCCC3=C2N=C2SC=NN2C3c2ccc(OC)c(OC)c2)cc1OC (configuration not stated) ): > 100 µM

Recorded TGI (molecule COC(C(=O)[C@@H](O)[C@@H](C)O)[C@@H]1Cc2cc3cc(O[C@H]4C[C@@H](O[C@H]5C[C@@H](O)[C@H](O)C(C)O5)[C@H](O)C(C)O4)c(C)c(O)c3c(O)c2C(=O)[C@H]1O[C@H]1C[C@@H](O[C@H]2C[C@@H](O[C@H]3C[C@@H](O)[C@@H](O)C(C)O3)[C@@H](O)C(C)O2)[C@H](O)C(C)O1 (some centres not stated) ): 9.05 µM

Recorded TGI (molecule "NS(=O)(=O)c1ccc(NCc2cnc3ccccc3c2)cc1" ): > 100 µM

Recorded TGI (molecule "CC(C)C(/C=C/c1ccc(Cl)cc1)=N\NC(=S)NN" ): > 100 µM

Recorded TGI (molecule CC(C)(C)C1=NN=C2c3ccccc3C(=O)C21 (configuration not stated) ): > 100 µM

Recorded TGI (molecule "COc1ccc2c(c1)CC[C@@H]1[C@@H]2CC[C@]2(C)c3c(cc(C(=O)c4ccccc4)c4sccc34)C[C@@H]12" ): > 100 µM

Recorded TGI (molecule "Cn1c(=O)c2c(nc3sc4ncccc4c(=O)n32)n(C)c1=O" ): > 100 µM

Recorded TGI (molecule "COc1cccc(-c2cc(NCc3ccc4c(c3)OCO4)nc(N)n2)c1" ): 16.5 µM

Recorded TGI (molecule "N.N.N.N.O=S(=O)([O-])[O-].[Co+3].[OH3+].[OH3+]" ): > 100 µM

Recorded TGI (molecule Cc1nn(C(=O)c2ccncc2)c2c1C(c1ccccc1O)SC(N)=N2 (configuration not stated) ): > 10 µM

Recorded TGI (molecule "O=c1[nH][nH]c(=S)c(=O)[nH]1" ): > 100 µM

Recorded TGI (molecule "Cc1ccccc1Nc1cn(CCOc2ccccc2)c(=O)n(CCOc2ccccc2)c1=O" ): > 100 µM

Recorded TGI (molecule "CCCCC/C(=N\c1nc[nH]c1C(N)=O)OCC" ): > 100 µM

Recorded TGI (molecule "O=C(NO)c1ccc(OCc2ccccc2)cc1" ): 28.1 µM

Recorded TGI (molecule COc1ccc2c(c1)N(CCC1CCCCN1C)c1ccccc1S2 (configuration not stated) ): 35.2 µM

Recorded TGI (molecule "O=C(CN1CCCC1)Nc1ccc2sc3ccccc3c(=O)c2n1" ): 99.1 µM

Recorded TGI (molecule "O=C1NCN(c2ccccc2)C12CCN(CCCSc1ccc(F)cc1)CC2" ): 97.3 µM

Recorded TGI (molecule "C(=N/Nc1ccccn1)/c1cccnc1" ): > 100 µM

Recorded TGI (molecule "CC[C@@H]1C[C@@H](O)[C@@H]2[C@H](O)[C@H](O)CN2C1" ): > 100 µM

Recorded TGI (molecule CCC(CCCCC1CC[C@H]2CC(=O)C[C@@H]12)OC (some centres not stated) ): > 100 µM

Recorded TGI (molecule "O=C1c2cccnc2-c2nccc3ccnc1c23" ): 2.11 µM

Recorded TGI (molecule "Cc1c(C)c(C)c(CSC(=N)N)c(C)c1C" ): 33.4 µM

Recorded TGI (molecule "Cc1cc2nc3c(C#N)c(-c4ccccc4)cc(Nc4cccc(C(F)(F)F)c4)n3c2cc1C" ): > 100 µM

Recorded TGI (molecule "CSc1ccc2c(c1)C(=O)c1c-2n(CCCN=[N+]=[N-])c(=O)c2cc([N+](=O)[O-])ccc12" ): > 100 µM

Recorded TGI (molecule "N#C/C(N)=C(\C#N)N=CNc1ccccc1N" ): > 100 µM

Recorded TGI (molecule "N=c1c2c(=O)n3c(nc2nc2sc4ccc(Cl)cc4n12)-c1ccccc1Sc1ccccc1-3" ): 7.49 µM

Recorded TGI (molecule "O=C(Nc1cccc(-n2cc(-c3ccncc3)c(-c3ccc(O)c(Cl)c3)n2)c1)Nc1ccc(Cl)c(C(F)(F)F)c1" ): 6.5 µM

Recorded TGI (molecule "C/C(CN1C(=O)c2ccccc2C1=O)=N\NS(C)(=O)=O" ): > 100 µM

Recorded TGI (molecule Nc1nc(Cl)cc(NCC2(CO)CC(Cc3ccccc3)C2)n1 (configuration not stated) ): > 100 µM

Recorded TGI (molecule CN(C)CC1CN(C(=O)Nc2ccccc2)C(=N)O1 (configuration not stated) ): > 100 µM
